Origin of the recorded values: PubChem BioAssay

For each of the molecules below, state its inhibition.
ASSAY COMMENT: endothelial E-selectin expression blockers – imaging, HUVEC, immunofluorescence, MLSMR starter and 10KST1 sets, primary screen (AID 487);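 also: signal is fraction of cell area covered by stained E-selectin grains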
STUDY CONDITIONS: HUVEC TNFalpha-induced E-selectin immunofluorescence imaging, at 2 µM; hits give high values
Answers are plain numbers, in %.

Example entries and their recorded answers appear below.
- MOLECULE: "CCOC(=O)N1CCC(Nc2c(-c3ccc(C)cc3)c(=O)c2=O)CC1"
  inhibition, %: -33.6
- MOLECULE: "CCCC(=O)N=C1SC2CS(=O)(=O)CC2N1c1ccc(CC)cc1 (configuration not stated)"
  inhibition, %: 26.4
- MOLECULE: "N#CC1=C(N)n2c(s/c(=C\\c3ccco3)c2=O)=C(C#N)C1c1ccco1 (configuration not stated)"
  inhibition, %: -34.4
- MOLECULE: "CCOc1cc(C)c(Cl)cc1S(=O)(=O)N(C)C"
  inhibition, %: -5.4

Look at each molecule and report its inhibition.
1. Cc1ccccc1CS(=O)(=O)CCC(=O)N1CCN(c2ccc(N3CCOCC3)nn2)CC1
2. O=S(=O)(c1ccc(OCC(O)CN2CCc3ccccc3C2)cc1)N1CCOCC1 (configuration not stated)
3. COCCCNC(=O)CCc1nc2cccnc2n1Cc1ccc(OC)cc1
4. Cc1ccc(Cn2nnc3c(=O)n(CC(=O)NCC4CCCO4)cnc32)cc1 (configuration not stated)

Return:
-146
-51.2
-16.4
-51.5

---

SYSTEM NAME: Muscarinic acetylcholine receptor M4 (Homo sapiens) (UniProt P08173)
Sequence (P08173 whole entry, looked up): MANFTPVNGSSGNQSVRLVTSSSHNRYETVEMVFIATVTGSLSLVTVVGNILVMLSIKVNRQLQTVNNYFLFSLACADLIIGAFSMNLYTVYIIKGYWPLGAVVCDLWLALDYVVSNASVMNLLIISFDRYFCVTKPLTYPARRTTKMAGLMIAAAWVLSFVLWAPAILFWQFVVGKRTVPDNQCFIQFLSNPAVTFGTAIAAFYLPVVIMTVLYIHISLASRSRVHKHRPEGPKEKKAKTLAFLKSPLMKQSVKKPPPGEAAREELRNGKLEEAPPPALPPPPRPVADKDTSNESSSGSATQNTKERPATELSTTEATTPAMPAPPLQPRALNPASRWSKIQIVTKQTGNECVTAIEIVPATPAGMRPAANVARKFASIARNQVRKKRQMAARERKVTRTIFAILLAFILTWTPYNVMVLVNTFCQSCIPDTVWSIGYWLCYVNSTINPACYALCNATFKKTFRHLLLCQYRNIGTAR
ASSAY COMMENT: M4-linked GIRK flux change, two-sided – cell-based, HEK293 M4/GIRK, thallium flux, BTC-AM, M4 allosteric agonist project, primary screen (AID 625);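 also: thallium influx through GIRK channels coupled to M4 in HEK293 cells with BTC-AM dye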
STUDY CONDITIONS: at 10 µM, actives lie on both sides
MEASURED ATTRIBUTE: fluorescence slope
One number for each entry.

Reference set, count: 10
- COMPOUND: "CN1CCCc2cc(C#N)c(=O)[nH]c21"
  NUMERIC READOUT: 0.00776
- COMPOUND: "COc1ccccc1N(CC(=O)NCc1ccccc1)S(C)(=O)=O"
  NUMERIC READOUT: 0.00584
- COMPOUND: "CCN1C(=O)OC2(CCCCC2)C1(C)O (stereo not drawn)"
  NUMERIC READOUT: 0.00575
- COMPOUND: "Cc1cccc(-n2ncc(C#N)c2N)c1"
  NUMERIC READOUT: 0.00451
- COMPOUND: "Cc1c(/C(O)=C2/C(=O)C(=O)N(CCN3CCOCC3)C2c2cccs2)cnn1-c1ccccc1 (stereo not drawn)"
  NUMERIC READOUT: 0.00361
- COMPOUND: "Cc1ccc(C)c(C(=O)NC2CC(C)(C)NC(C)(C)C2)c1"
  NUMERIC READOUT: 0.00855
- COMPOUND: "Cc1ccc(NCc2nnc(SCC(=O)N3CCCCC3)n2CC2CCCO2)c(C)c1 (stereo not drawn)"
  NUMERIC READOUT: 0.00508
- COMPOUND: "Cc1cc(NC(=O)c2ccccc2Oc2ccccc2)no1"
  NUMERIC READOUT: 0.00465
- COMPOUND: "COc1ccc(OCC(=O)N2CCN(C(=O)c3cccs3)CC2)cc1"
  NUMERIC READOUT: 0.00633
- COMPOUND: "CC(=O)N1CCc2cc(S(=O)(=O)CCC(=O)N3CCN(C(=O)c4ccco4)CC3)ccc21"
  NUMERIC READOUT: 0.00737

I'm hoping you can list fluorescence slope for every compound here, please.
1. COc1cc(C(=O)Nc2ccc3c(c2)C(=O)N(CCC(=O)O)C3=O)cc(OC)c1OC
2. CCCc1nc2ccccc2c2nc(N)nn12
3. O=C(NCC1CCCO1)C1CC(c2ccc(Cl)c(Cl)c2)=NO1 (stereo not drawn)
4. CC(C)Oc1ccc(C2C(C(=O)c3ccco3)=C(O)C(=O)N2CCCN(C)C)cc1 (stereo not drawn)

Return:
1: 0.00491; 2: 0.00513; 3: 0.00536; 4: 0.00376
